assayedTarget: human glucagon receptor (human, UniProt P47871 26-477)
assayRemarks: cell-based or functional assay
reportedEndpoint: GLUR EC50 (cAMP formation in HEK293 cells expressing human Glucagon-R) (nmol)

binder	unitText	dataValue
H-HSQGTFTSDYSKYLDKRRAEDFIKWLLSA-NH2 [L006-0094]	nmol	0.25
H-HSQGTFTSDYSKYLDSRRAQDFIEWLLSA-NH2 [L006-0090]	nmol	0.22

A: H-HSQGTFTSDYSKYLDERRAKDFIDWLLSA-NH2 [L006-0129]
B: H-HSQGTFTSDYSKYLDERRAKDFIQWLLSA-NH2 [L006-0084]
C: H-HSQGTFTSDYSKYLDERRAKDFIEWLLRA-NH2 [L006-0138]
Request: Ascending by GLUR EC50 (cAMP formation in HEK293 cells expressing human Glucagon-R), please. # respond with the labels, arranged in the requested order
Response: B, A, C
(B: 0.13 nmol, A: 0.24 nmol, C: 0.38 nmol)
